System: Staphylococcus aureus
protocol.description: Antibacterial activity against methicillin-resistant Staphylococcus aureus 936 after 18 hrs by CLSI based broth microdilution method
Assay type: functional
conditions.used: Staphylococcus aureus, 936, 18 h
property: MIC (µM)
Numbers only, in µM.

GET MIC | system: Staphylococcus aureus | item: CCCCCCCCCC(=O)NCC(=O)N[C@@H](CC(C)C)C(=O)N[C@@H](CC(C)C)C(=O)N[C@H](CCCCN)C(=O)N[C@@H](CCCNC(=N)N)C(=O)N[C@H](C(=O)N[C@H](CCCCN)C(=O)N[C@H](C(=O)N[C@@H](CC(C)C)C(=O)N[C@@H](CC(C)C)C(N)=O)[C@@H](C)O)[C@@H](C)CC
8
